Cited source for all entries: patent US20210130473A1

// IC50 lookup, one value per entry
Test system: TGFβ/SMAD Signaling Pathway SBE reporter cell line
Assay: TGFb reporter assay in HEK293 SBE-LUC reporter cells (luciferase)
Format: cell-based
Settings: Homo sapiens, key of the table says IC50, read-out: EC50 (the source's name)

Field: example entries. Status: answers known.
compound | tgt | measurement-kind | reported-result
COC(=O)[C@H](NCc1nc(-c2cccc(C)n2)c(-c2ccc3ncnn3c2)[nH]1)c1ccccc1 [Compound 15] | TGFβ/SMAD Signaling Pathway SBE reporter cell line | IC50 | 100 to 1000 nM
Cc1cccc(-c2nc(CNCC3CC3)[nH]c2-c2ccc3ncnn3c2)n1 [Compound 1.8] | TGFβ/SMAD Signaling Pathway SBE reporter cell line | IC50 | 100 to 1000 nM
Cc1cccc(-c2nc(CNCCc3c(F)cccc3F)[nH]c2-c2ccc3ncccc3n2)n1 [Compound 78] | TGFβ/SMAD Signaling Pathway SBE reporter cell line | IC50 | 0.1 to 10 nM
Cc1cccc(-c2nc(CNCc3ccccc3-c3cccc(CNC(=O)OC(C)(C)C)c3)[nH]c2-c2ccc3ncnn3c2)n1 [Compound 30] | TGFβ/SMAD Signaling Pathway SBE reporter cell line | IC50 | 100 to 1000 nM
Cc1cccc(-c2nc(CNCc3cccc(C)c3-c3ccccc3)[nH]c2-c2ccc3ncnn3c2)n1 [Compound 48] | TGFβ/SMAD Signaling Pathway SBE reporter cell line | IC50 | 10 to 100 nM
COc1ccccc1CNCc1nc(-c2cccc(C)n2)c(-c2ccc3ncnn3c2)[nH]1 [Compound 17] | TGFβ/SMAD Signaling Pathway SBE reporter cell line | IC50 | 10 to 100 nM

// switching to the query compound
Prompt: Give IC50; test system TGFβ/SMAD Signaling Pathway SBE reporter cell line; compound Cc1cccc(-c2nc(CN3Cc4ccccc4C3=O)[nH]c2-c2ccc3ncnn3c2)n1 [Compound 1.56]
Completion: 10 to 100 nM
